// provenance: patent US8546420B2

biological target: HCV NS5B polymerase (Hepatitis C virus genotype 1b, UniProt P26663); construct: A soluble C-terminal 21-amino acid truncated NS5B enzyme form; polyhistidine (C); test: HCV NS5B Polymerase Inhibition Assay
Sequence (P26663 2420-2989): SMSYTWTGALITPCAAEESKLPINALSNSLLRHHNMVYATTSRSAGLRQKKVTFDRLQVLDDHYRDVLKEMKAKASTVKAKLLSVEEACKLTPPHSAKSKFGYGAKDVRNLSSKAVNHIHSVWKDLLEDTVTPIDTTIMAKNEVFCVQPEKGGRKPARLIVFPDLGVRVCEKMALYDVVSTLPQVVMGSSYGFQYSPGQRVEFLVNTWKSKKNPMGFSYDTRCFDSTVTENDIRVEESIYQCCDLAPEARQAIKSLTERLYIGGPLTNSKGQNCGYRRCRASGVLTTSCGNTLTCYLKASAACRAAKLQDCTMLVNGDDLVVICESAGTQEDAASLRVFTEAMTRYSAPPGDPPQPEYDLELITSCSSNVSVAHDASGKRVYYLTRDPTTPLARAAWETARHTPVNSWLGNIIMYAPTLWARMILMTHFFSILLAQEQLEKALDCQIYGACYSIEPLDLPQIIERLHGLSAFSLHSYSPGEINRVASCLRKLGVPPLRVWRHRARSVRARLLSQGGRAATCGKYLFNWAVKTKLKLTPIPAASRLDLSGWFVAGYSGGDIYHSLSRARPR
endpoint name: IC50

> print(dat)
                                   molecule  endpoint.name  experimental.value
1  O=C(O)c1cccc(Cn2c(C(=O)O)c(-c3ccccc3F)c3c4ccccc4ccc32)c1 [Compound 7]           IC50            > 100 nM
2  O=C(NS(=O)(=O)C1CC1)c1c(-c2ccc[nH]c2=O)c2c3ccccc3c(F)cc2n1Cc1cc([N+](=O)[O-])ccc1F [Compound 33]           IC50             < 25 nM
3  COC(=O)c1cccc(Cn2c(C(=O)NS(C)(=O)=O)c(-c3ccc[nH]c3=O)c3c4ccccc4ccc32)c1 [Compound 10]           IC50             < 25 nM

----------
target: HCV NS5B polymerase (Hepatitis C virus genotype 1b, UniProt P26663); construct: A soluble C-terminal 21-amino acid truncated NS5B enzyme form; polyhistidine (C); experiment: HCV NS5B Polymerase Inhibition Assay
In this section we review reported IC50 values for a set of compounds.
endpoint name: IC50

> print(dat)
                           structure.string                               test.system  experimental.value
1  O=C(O)c1cccc(Cn2c(C(=O)O)c(-c3ccc[nH]c3=O)c3c4ccccc4ccc32)c1  HCV NS5B polymerase (Hepatitis C virus genotype 1b, UniProt P26663)            > 100 nM
2  O=C(O)c1c(-c2ccc[nH]c2=O)c2c3ncccc3ccc2n1Cc1cc(F)ccc1F  HCV NS5B polymerase (Hepatitis C virus genotype 1b, UniProt P26663)        25 to 100 nM
3  CS(=O)(=O)Nc1cccc(S(=O)(=O)NC(=O)c2c(-c3ccc[nH]c3=O)c3c4ccccc4ccc3n2Cc2ccc(F)cc2F)c1  HCV NS5B polymerase (Hepatitis C virus genotype 1b, UniProt P26663)             < 25 nM
4  CS(=O)(=O)NC(=O)c1c(-c2ccc[nH]c2=O)c2c3c(ccc2n1Cc1ccccc1F)CCCO3  HCV NS5B polymerase (Hepatitis C virus genotype 1b, UniProt P26663)             < 25 nM
5  CS(=O)(=O)NC(=O)c1c(-c2ccc[nH]c2=O)c2c3ccccc3ccc2n1Cc1ccnc(N)c1  HCV NS5B polymerase (Hepatitis C virus genotype 1b, UniProt P26663)        25 to 100 nM
